Entries with reported pIC50 on DPP-IV from porcine kidney (Sus scrofa, UniProt P22411)
Sequence (P22411 whole entry): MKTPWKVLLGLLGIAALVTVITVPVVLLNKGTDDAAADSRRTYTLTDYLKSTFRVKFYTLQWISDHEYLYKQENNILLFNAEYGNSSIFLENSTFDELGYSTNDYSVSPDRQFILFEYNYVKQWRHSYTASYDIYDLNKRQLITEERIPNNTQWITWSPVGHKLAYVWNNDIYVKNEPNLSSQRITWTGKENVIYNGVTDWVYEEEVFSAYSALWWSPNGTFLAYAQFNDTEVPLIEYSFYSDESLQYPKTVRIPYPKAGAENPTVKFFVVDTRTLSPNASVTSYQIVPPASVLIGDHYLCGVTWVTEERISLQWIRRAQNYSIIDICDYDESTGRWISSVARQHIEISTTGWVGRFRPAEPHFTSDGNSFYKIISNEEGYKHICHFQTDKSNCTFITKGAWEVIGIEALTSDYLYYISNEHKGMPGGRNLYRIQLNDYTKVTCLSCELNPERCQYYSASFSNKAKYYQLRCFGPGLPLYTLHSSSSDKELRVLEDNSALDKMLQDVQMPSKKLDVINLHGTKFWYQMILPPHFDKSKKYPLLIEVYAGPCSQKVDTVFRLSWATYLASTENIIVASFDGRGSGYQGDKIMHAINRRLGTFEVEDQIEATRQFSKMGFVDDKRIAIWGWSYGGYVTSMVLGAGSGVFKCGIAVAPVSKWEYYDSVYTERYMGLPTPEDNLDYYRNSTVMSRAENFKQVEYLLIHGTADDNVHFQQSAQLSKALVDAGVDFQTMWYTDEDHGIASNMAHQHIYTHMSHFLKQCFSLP
pIC50: −log10 of the molar value. Where a name gives a salt, the structure may show the parent alone.
measured_property: pIC50

CC(C)=CCn1c(N2CCC3CNCC32)nc2c1c(=O)n(CC(=O)c1cccc(Cl)c1)c(=O)n2C (stereo not drawn) [Example 42] ... 8.00
CC(C)=CCn1c(N2CCC3CNCC32)nc2c1c(=O)n(CC(O)c1ccccc1)c(=O)n2C (stereo not drawn) [Example 14, hydrochloride] ... 7.92
CC(C)=CCn1c(N2CCC3CNCC32)nc2c1c(=O)n(CCc1ccccc1)c(=O)n2C1CC1 (stereo not drawn) [Example 21, hydrochloride] ... 7.15
CC(C)=CCn1c(N2CCC3CNCC32)nc2c1c(=O)n(CC(=O)c1ccccc1Cl)c(=O)n2C (stereo not drawn) [Example 41, trifluoroacetate] ... 7.98
Cn1c(=O)n(CC(=O)c2ccccc2)c(=O)c2c1nc(N1CCC3CNCC31)n2Cc1ccccc1 (stereo not drawn) [Example 5, hydrochloride] ... 8.14
CC(C)=CCn1c(N2CCC3CNCC32)nc2c1c(=O)n(CC(=O)c1ccccc1)c(=O)n2CC(F)(F)F (stereo not drawn) [Example 35, hydrochloride] ... 7.30
CCn1c(=O)n(CC(=O)c2ccccc2)c(=O)c2c1nc(N1CCC3CNCC31)n2CC=C(C)C (stereo not drawn) [Example 15, hydrochloride] ... 8.30
Cn1c(=O)c2c(nc(N3CCC4CNCC43)n2Cc2ccccc2Cl)n(C)c1=O (stereo not drawn) [Example 97, trifluoroacetate] ... 7.70
CC(C)=CCn1c(N2CCC3CNCC32)nc2c1c(=O)n(Cc1nc3cc(F)ccc3s1)c(=O)n2C (stereo not drawn) [Example 16, hydrochloride] ... 7.72
